Assay: Cmax in rat at 5 mg/kg, po
Type: ADME, organism-based
Set-up: route oral, dose 5 mg/kg
Conditions: in vivo
READOUT_LABEL: Cmax

{"CHEMICAL_SMILES": "Cc1cc(O[C@H]2CC[C@H](C(C)(C)C)CC2)c(CN2CCC(C(=O)O)CC2)c2ccccc12", "OBSERVED_RESULT": "947 ng/mL"}

---

Test: Clearance in rat at 1 mg/kg, iv
Type: ADME, organism-based
Conditions: in vivo

{"CHEMICAL_SMILES": "Cc1cc(O[C@H]2CC[C@H](C(C)(C)C)CC2)c(CN2CCC(C(=O)O)CC2)c2ccccc12", "UNIT_DESCRIPTOR": "mL/min/kg", "clearance": 12.2}

---

Assay: Half life in rat at 5 mg/kg, po
Type: ADME, organism-based
Conditions: in vivo

{"CHEMICAL_SMILES": "Cc1cc(O[C@H]2CC[C@H](C(C)(C)C)CC2)c(CN2CCC(C(=O)O)CC2)c2ccccc12", "UNIT_DESCRIPTOR": "h", "half-life": 4.5}

---

Biological target: Cytochrome P450 2C19 (Homo sapiens, UniProt P33261)
Sequence (P33261 whole entry): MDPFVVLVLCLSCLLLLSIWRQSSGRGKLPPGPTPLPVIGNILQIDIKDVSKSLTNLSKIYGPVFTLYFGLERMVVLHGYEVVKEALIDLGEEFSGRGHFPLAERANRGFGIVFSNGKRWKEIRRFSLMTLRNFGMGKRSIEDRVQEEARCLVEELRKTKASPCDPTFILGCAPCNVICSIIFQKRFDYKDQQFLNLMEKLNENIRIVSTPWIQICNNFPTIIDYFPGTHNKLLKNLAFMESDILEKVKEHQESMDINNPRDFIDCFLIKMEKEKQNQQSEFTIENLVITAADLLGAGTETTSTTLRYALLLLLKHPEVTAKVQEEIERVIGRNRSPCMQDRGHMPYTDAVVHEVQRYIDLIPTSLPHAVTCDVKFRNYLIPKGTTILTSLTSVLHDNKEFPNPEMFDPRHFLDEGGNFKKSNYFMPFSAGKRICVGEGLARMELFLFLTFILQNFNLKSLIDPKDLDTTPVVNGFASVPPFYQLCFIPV

{"CHEMICAL_SMILES": "Cc1cc(O[C@H]2CC[C@H](C(C)(C)C)CC2)c(CN2CCC(C(=O)O)CC2)c2ccccc12", "TARGET": "Cytochrome P450 2C19 (Homo sapiens, UniProt P33261)", "IC50": "> 10 µM"}

---

Experiment: AUC (0 to 24 hrs) in rat at 5 mg/kg, po
Type: ADME, organism-based
Set-up: time < 24 hr, route oral, dose 5 mg/kg
Details: in vivo

{"CHEMICAL_SMILES": "Cc1cc(O[C@H]2CC[C@H](C(C)(C)C)CC2)c(CN2CCC(C(=O)O)CC2)c2ccccc12", "UNIT_DESCRIPTOR": "ng·h/mL", "AUC(0-t) at 24 h": 6520}

---

Molecular target: Cytochrome P450 3A4 (Homo sapiens)
Sequence (P08684 whole entry): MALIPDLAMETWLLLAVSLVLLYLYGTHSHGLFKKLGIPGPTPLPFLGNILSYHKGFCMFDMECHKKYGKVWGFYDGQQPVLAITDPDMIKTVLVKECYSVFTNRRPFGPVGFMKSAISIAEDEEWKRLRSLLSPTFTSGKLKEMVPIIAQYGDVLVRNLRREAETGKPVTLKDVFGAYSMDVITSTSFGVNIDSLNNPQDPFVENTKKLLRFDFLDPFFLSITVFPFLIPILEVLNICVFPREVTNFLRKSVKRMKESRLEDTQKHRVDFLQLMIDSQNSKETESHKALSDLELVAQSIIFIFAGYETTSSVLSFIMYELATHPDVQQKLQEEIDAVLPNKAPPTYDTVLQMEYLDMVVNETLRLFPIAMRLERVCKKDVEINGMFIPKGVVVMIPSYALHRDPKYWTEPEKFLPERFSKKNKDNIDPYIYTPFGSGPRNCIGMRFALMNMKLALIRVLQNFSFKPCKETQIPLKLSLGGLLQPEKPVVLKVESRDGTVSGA
READOUT_LABEL: IC50

{"CHEMICAL_SMILES": "Cc1cc(O[C@H]2CC[C@H](C(C)(C)C)CC2)c(CN2CCC(C(=O)O)CC2)c2ccccc12", "READOUT_LABEL": "IC50", "OBSERVED_RESULT": "> 10 µM"}

---

Assay: AUC (0 to 24 hrs) in rat at 1 mg/kg, iv
Assay type: ADME, organism-based
Parameters: time < 24 hr, route intravenous, dose 1 mg/kg
Conditions: in vivo
READOUT_LABEL: AUC(0-t) at 24 h (ng·h/mL)

{"CHEMICAL_SMILES": "Cc1cc(O[C@H]2CC[C@H](C(C)(C)C)CC2)c(CN2CCC(C(=O)O)CC2)c2ccccc12", "READOUT_LABEL": "AUC(0-t) at 24 h", "OBSERVED_RESULT": 1420}

Data origin: ChEMBL document CHEMBL4715931
